Assign protein stability index to each entry below.
# System: Saccharomyces cerevisiae;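 further: PSI is a weighted mean of sequencing reads over stability bins, variants kept only with over 10 reads, mCherry proximal and sfGFP distal, peptide attached via GGGS linker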
# test-details: protein stability index of tFT-peptide fusion (C-terminal peptide) (PSI (0-1 scale)); higher = more stable (slower turnover)
# condition: genetic background: cdc34-1; temperature: 37 C
One number for each entry.

As a guide, the following entries are already answered.
| item-sequence | target-or-test-system | protein stability index |
| --- | --- | --- |
| ICQFFFFALLSF | Saccharomyces cerevisiae | 0.109 |
| FALFCFVIFMSR | Saccharomyces cerevisiae | 0.22 |
| GGIVLLVRVCGP | Saccharomyces cerevisiae | 0.55 |

Provide the reported protein stability index of each entry below, same order.
1. GFLGMFFFWFAL
2. FFGFYLKFVWCG
3. SVVYCRMRVHFV
4. SGFLNVGYLWVC
5. KYKANLGNLKVH
6. FACLTPFCLCLT

Output:
0.588
0.431
0.403
0.562
0.596
0.527

Provide the reported protein stability index of each entry below, same order.
1. YLRVRRPGSALV
2. IVCAVTSIFLFF

Output:
1. 0.709
2. 0.306

Provide the reported protein stability index of each entry below, same order.
1. GDFYCSSVVLVV
2. VLFFCLVIYVGV
3. MYESIRILVNKV

Output:
0.401
0.187
0.62
